- Tested on: Mycobacterium tuberculosis
- testMethodNotes: Antimycobacterial activity against Mycobacterium tuberculosis H37Rv ATCC 27294 by microplate alamar blue assay
- Format: functional
measuredProperty: MIC

Past entries and their recorded results:
{"columns": ["recordSmiles", "obsValue"],
 "data": [
  ["COc1cc(CN2CCN(c3cc4c(cc3F)c(=O)c(C(=O)O)cn4C3CC3)CC2)c([N+](=O)[O-])cc1OC", "> 32 µg/mL"],
  ["COc1ccc(OC)c(CN2CCN(c3cc4c(cc3F)c(=O)c(C(=O)O)cn4C3CC3)CC2)c1", "> 32 µg/mL"],
  ["COc1cc(Br)c(CN2CCN(c3cc4c(cc3F)c(=O)c(C(=O)O)cn4C3CC3)CC2)cc1OC", "> 32 µg/mL"]
]}

## Input Name the reported MIC value associated with the molecule "COc1ccc(CN2CCN(c3cc4c(cc3F)c(=O)c(C(=O)O)cn4C3CC3)CC2)c(Cl)c1OC"
## Output 2 µg/mL

## Input // repeat for "COc1ccc(CN2CCN(c3cc4c(cc3F)c(=O)c(C(=O)O)cn4C3CC3)CC2)c(OC)c1OC" and report
## Output 16 µg/mL

Cited source: ChEMBL document CHEMBL2157880
